Molecular target: full length Aurora-A (AA 1-403) (Homo sapiens, UniProt O14965)
Sequence (O14965 1-403): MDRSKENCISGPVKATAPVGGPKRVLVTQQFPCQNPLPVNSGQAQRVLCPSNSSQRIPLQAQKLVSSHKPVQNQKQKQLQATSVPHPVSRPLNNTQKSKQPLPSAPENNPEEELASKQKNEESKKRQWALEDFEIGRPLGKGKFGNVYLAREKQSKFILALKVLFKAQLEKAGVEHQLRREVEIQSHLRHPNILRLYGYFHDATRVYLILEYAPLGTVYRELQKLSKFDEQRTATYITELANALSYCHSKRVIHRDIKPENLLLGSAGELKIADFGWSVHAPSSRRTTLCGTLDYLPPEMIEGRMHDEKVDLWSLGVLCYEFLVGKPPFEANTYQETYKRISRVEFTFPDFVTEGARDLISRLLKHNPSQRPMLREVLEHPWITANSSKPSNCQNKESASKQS
quantity: Ki

> print(dat)
                                    molecule  quantity        measured
 1  CC(=O)N1[C@H](C)CN(c2cccc(-c3c[nH]c4ncc(C(=O)N5C[C@@H](C)N[C@@H](C)C5)cc34)n2)C[C@@H]1C        Ki  500 to 5000 nM
 2  CCc1cnc(-c2c[nH]c3ncc(Cl)cc23)nc1N[C@@H](C)c1ccc(F)cc1        Ki        < 500 nM
 3  Fc1cnc(-c2c[nH]c3ncc(Cl)cc23)nc1NCc1ccc(Cl)cc1        Ki        < 500 nM
 4  C[C@H](Nc1nc(-c2c[nH]c3ncc(Cl)cc23)ncc1F)C(=O)NC1CCS(=O)(=O)C1 (stereo partly drawn)        Ki  500 to 5000 nM
 5         CNc1cccc(-c2cn(C)c3ncc(Cl)cc23)n1        Ki       > 5000 nM
 6  CC(=O)N1[C@H](C)CN(c2cccc(-c3c[nH]c4ncc(NC(=O)CCN5CCOCC5)cc34)n2)C[C@@H]1C        Ki  500 to 5000 nM
 7  O[C@H]1CCCC[C@@H]1Nc1cccc(-c2c[nH]c3ncc(Cl)cc23)n1        Ki        < 500 nM
 8  Fc1cnc(-c2c[nH]c3ncc(Cl)cc23)nc1NCC1CCCNC1 (stereo not drawn)        Ki        < 500 nM
 9  Fc1cnc(-c2c[nH]c3ncc(Cl)cc23)nc1NC1CCNC1 (stereo not drawn)        Ki        < 500 nM
10  CCOC(=O)Nc1cnc2[nH]cc(-c3cccc(N4C[C@@H](C)N(C(C)=O)[C@@H](C)C4)n3)c2c1        Ki  500 to 5000 nM
11  C[C@H](Nc1nc(-c2c[nH]c3ncc(Cl)cc23)ncc1F)C(=O)NCCCn1ccnc1        Ki        < 500 nM
12  COc1ccc(OC)c(-c2c[nH]c3ncc(-c4ccccc4)cc23)c1        Ki        < 500 nM
13  CN(C)c1cccc(-c2c[nH]c3ncc(-c4ccccc4)cc23)n1        Ki        < 500 nM
14  Cc1ccc(CNc2cccc(-c3c[nH]c4ncc(-c5ccccc5)cc34)n2)cc1        Ki  500 to 5000 nM
15   Clc1cnc2[nH]cc(-c3cccc(N4CCNCC4)n3)c2c1        Ki        < 500 nM
16  N#Cc1cc(-c2c[nH]c3ncc(Cl)cc23)nc(N2CCNCC2)c1        Ki        < 500 nM
17  CC(=O)NCCNC(=O)[C@H](C)Nc1nc(-c2c[nH]c3ncc(Cl)cc23)ncc1F        Ki        < 500 nM
18  C[C@H](Nc1nc(-c2c[nH]c3ncc(Cl)cc23)ncc1F)c1cccc(OCCN(C)C)c1        Ki        < 500 nM
19  Clc1cnc2[nH]cc(-c3cccc(Sc4ccccc4Cl)n3)c2c1        Ki        < 500 nM
20   Clc1cnc2[nH]cc(-c3cccc(NC4CCCC4)n3)c2c1        Ki        < 500 nM
21  Clc1cnc2[nH]cc(-c3cccc(Nc4ccccc4Cl)n3)c2c1        Ki        < 500 nM
22  CC(C)(C)OC(=O)N(Cc1ccc(S(C)(=O)=O)cc1)c1cccc(-c2c[nH]c3ncc(Cl)cc23)n1        Ki        < 500 nM
23  C[C@H](Nc1nc(-c2c[nH]c3ncc(Br)cc23)ncc1F)c1ccc(F)cc1        Ki        < 500 nM
24  CNS(=O)(=O)c1ccc(-c2cnc3[nH]cc(-c4ccc(C(N)=O)cc4)c3c2)cc1        Ki        < 500 nM
25  CC(=O)NCc1ccc(-c2c[nH]c3ncc(-c4ccccc4)cc23)cc1        Ki  500 to 5000 nM
26  CC(=O)N1[C@H](C)CN(c2nc(-c3c[nH]c4ncc(Cl)cc34)ccc2-c2nnn[nH]2)C[C@@H]1C        Ki        < 500 nM
27  C[C@H](Nc1cccc(-c2c[nH]c3ncc(Cl)cc23)n1)c1ccccc1        Ki        < 500 nM
28  CC(=O)N1[C@H](C)CN(c2cccc(-c3c[nH]c4ncc(NC(=O)C5=CCCCC5)cc34)n2)C[C@@H]1C        Ki  500 to 5000 nM
29  Fc1cnc(-c2c[nH]c3ncc(Cl)cc23)nc1NCC1CCCCN1 (stereo not drawn)        Ki        < 500 nM
30       OCCNc1cccc(-c2c[nH]c3ncc(Cl)cc23)n1        Ki  500 to 5000 nM
31  Fc1cnc(-c2c[nH]c3ncc(Cl)cc23)nc1SCc1ccc(Cl)cc1        Ki  500 to 5000 nM
32  Fc1cnc(-c2c[nH]c3ncc(Cl)cc23)nc1NCc1cccc(Cl)c1        Ki        < 500 nM
33  CC(=O)N1[C@H](C)CN(c2ccc(-c3nnn[nH]3)c(-c3c[nH]c4ncc(Cl)cc34)n2)C[C@@H]1C        Ki  500 to 5000 nM

----------
Biological target: full length Aurora-A (AA 1-403) (Homo sapiens, UniProt O14965)
quantity: Ki

> print(dat)
                                   compound                               target.desc  quantity        measured
1  CC(=O)N1[C@H](C)CN(c2cccc(-c3c[nH]c4ncc(NC(=O)Oc5ccccc5)cc34)n2)C[C@@H]1C [Compound 69]  full length Aurora-A (AA 1-403) (Homo sapiens, UniProt O14965)        Ki  500 to 5000 nM
2  OC[C@H](Nc1cccc(-c2c[nH]c3ncc(Cl)cc23)n1)c1ccccc1 [Compound 100]  full length Aurora-A (AA 1-403) (Homo sapiens, UniProt O14965)        Ki        < 500 nM
3  CNC(=O)[C@@H](Nc1nc(-c2c[nH]c3ncc(Cl)cc23)ncc1F)C(C)C [Compound 362]  full length Aurora-A (AA 1-403) (Homo sapiens, UniProt O14965)        Ki        < 500 nM
4  OCc1cc(-c2c[nH]c3ncc(Cl)cc23)nc(N2CCNCC2)c1 [Compound 405]  full length Aurora-A (AA 1-403) (Homo sapiens, UniProt O14965)        Ki        < 500 nM
5  C[C@H](Nc1nc(-c2c[nH]c3ncc(Cl)cc23)ncc1F)C(=O)NCCO [Compound 391]  full length Aurora-A (AA 1-403) (Homo sapiens, UniProt O14965)        Ki        < 500 nM
6  Fc1cnc(-c2c[nH]c3ncc(Cl)cc23)nc1NC1CCNCC1 [Compound 345]  full length Aurora-A (AA 1-403) (Homo sapiens, UniProt O14965)        Ki        < 500 nM
7  C[C@H](Nc1nc(-c2c[nH]c3ncc(C(=O)N(C)C)cc23)ncc1F)c1ccc(F)cc1 [Compound 346]  full length Aurora-A (AA 1-403) (Homo sapiens, UniProt O14965)        Ki  500 to 5000 nM
8  C#Cc1cc(-c2c[nH]c3ncc(Cl)cc23)nc(N2CCNCC2)c1 [Compound 412]  full length Aurora-A (AA 1-403) (Homo sapiens, UniProt O14965)        Ki        < 500 nM

----------
# pKi per entry
Target: full length Aurora-A (AA 1-403) (Homo sapiens, UniProt O14965)
Sequence (O14965 1-403): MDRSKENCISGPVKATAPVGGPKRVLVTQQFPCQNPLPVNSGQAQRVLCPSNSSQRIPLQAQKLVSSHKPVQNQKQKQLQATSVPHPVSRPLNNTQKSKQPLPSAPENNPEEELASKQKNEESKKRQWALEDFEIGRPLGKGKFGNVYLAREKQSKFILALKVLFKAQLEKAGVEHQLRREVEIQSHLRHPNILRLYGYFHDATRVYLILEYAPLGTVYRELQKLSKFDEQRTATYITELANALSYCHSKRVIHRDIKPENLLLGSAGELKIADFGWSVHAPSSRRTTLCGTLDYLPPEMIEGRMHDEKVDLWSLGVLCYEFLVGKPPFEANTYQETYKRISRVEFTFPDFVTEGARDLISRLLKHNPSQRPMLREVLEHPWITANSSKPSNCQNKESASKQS
pKi: −log10 of the molar value.
quantity: pKi

> print(dat)
                                   compound                               target.desc      measured
1  CCOC(=O)CCC(=O)Nc1cnc2[nH]cc(-c3cccc(N4C[C@@H](C)N(C(C)=O)[C@@H](C)C4)n3)c2c1 [Compound 119]  full length Aurora-A (AA 1-403) (Homo sapiens, UniProt O14965)  5.30 to 6.30
2  Fc1cnc(-c2c[nH]c3ncc(Cl)cc23)nc1NC1CCCNC1 (stereo not shown) [Compound 347]  full length Aurora-A (AA 1-403) (Homo sapiens, UniProt O14965)        > 6.30
3  C[C@H](Nc1nc(-c2c[nH]c3ncc(Cl)cc23)ncc1F)C(=O)NCCC#N [Compound 461]  full length Aurora-A (AA 1-403) (Homo sapiens, UniProt O14965)        > 6.30
4  C[C@H](Nc1cc(N2CCN(C(=O)OC(C)(C)C)CC2)nc(-c2c[nH]c3ncc(Cl)cc23)n1)C(=O)NCC(F)(F)F [Compound 415]  full length Aurora-A (AA 1-403) (Homo sapiens, UniProt O14965)        > 6.30
